B1: POU domain, class 4, transcription factor 1, residues 266 to 347; numbered along this chain, Q01851 (parent)
chain: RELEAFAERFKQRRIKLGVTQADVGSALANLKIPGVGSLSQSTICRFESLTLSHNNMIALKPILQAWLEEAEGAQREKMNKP

- Variants of: B1
- assay notes: abundance fitness (aPCA) (normalised: wild type 0, dead -1); higher = more abundant; growth selection in yeast, the domain comes from the species named
- reported conditions: Homo sapiens

mutation label	abundance fitness
N56K	0.015
Q12R	-0.14
Q41N	-0.137
Q65F	-0.112
R9E	-0.019
K81Y	-0.224
S53N	-0.114
R9N	0.012
A5Q	0.047
A7Q	-0.712
A66L	-0.125
R76A	0.03
L28K	-0.601
V36Y	-0.257
R46A	0.094
R1D	0.008
C45G	-0.037
E2H	-0.194
A74E	0.025
S49C	-0.082
A22P	0.13
K81F	0.198
